Biological target: GRK2 (Homo sapiens, UniProt P25098)
Sequence (P25098 whole entry): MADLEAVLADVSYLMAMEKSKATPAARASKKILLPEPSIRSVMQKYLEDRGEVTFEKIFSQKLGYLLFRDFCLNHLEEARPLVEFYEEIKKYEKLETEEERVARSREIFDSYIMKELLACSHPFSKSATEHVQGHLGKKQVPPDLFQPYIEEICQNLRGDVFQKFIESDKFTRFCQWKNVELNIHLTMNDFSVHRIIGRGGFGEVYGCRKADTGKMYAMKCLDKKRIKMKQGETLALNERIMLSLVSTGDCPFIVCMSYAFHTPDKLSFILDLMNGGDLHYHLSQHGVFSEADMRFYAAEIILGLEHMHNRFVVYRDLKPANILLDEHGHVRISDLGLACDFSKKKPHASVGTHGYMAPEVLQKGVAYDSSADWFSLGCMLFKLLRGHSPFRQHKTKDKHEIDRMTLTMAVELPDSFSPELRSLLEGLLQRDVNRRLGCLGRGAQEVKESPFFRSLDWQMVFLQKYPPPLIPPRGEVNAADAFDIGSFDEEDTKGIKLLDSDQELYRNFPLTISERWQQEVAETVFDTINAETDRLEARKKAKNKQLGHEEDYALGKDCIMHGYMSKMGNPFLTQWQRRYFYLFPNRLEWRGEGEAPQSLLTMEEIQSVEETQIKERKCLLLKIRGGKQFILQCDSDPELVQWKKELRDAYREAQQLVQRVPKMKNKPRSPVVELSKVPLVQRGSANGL
Assay: GRK2 Inhibition Assay (TR-FRET, Example 1)
Type: biochemical
Settings: TR-FRET, 7 μM ATP; read-out: Enzymatic GRK2 Assay: IC50 (nM) (Example 1)
quantity.name: IC50

{"structure": "Cc1ncsc1-c1ccc([C@H](C)NC(=O)[C@@H]2C[C@@H](O)CN2C(=O)[C@@H](NC(=O)CCCCCOCCOCCOCCCCCCOc2cccc(CNC(=O)c3cccc(NCc4nnc(-c5ccncn5)n4C)c3)c2)C(C)(C)C)cc1", "IC50": "< 100 nM"}

### Prompt What measured IC50 goes with Cc1ncsc1-c1ccc(CNC(=O)[C@@H]2C[C@@H](O)CN2C(=O)[C@@H](NC(=O)CCCCCOCCOCCOCCCCCCOc2cccc([C@H](C)NC(=O)c3cccc(NCc4nnc(-c5ccncn5)n4C)c3)c2)C(C)(C)C)cc1 ?
### Response < 100 nM

----------
Molecular target: GRK2 (Homo sapiens, UniProt P25098)
Assay: GRK2 Degradation Assay and Western Blot in PAXF1657 cells
Assay type: cell-based
Set-up: endogenous in cells; host or cells: PAXF1657
Details: 3 uM, PAXF1657 EV, 24 hrs; read-out: % GRK2 degradation at 3 uM in PAXF1657 EV (24 hrs)
quantity.name: inhibition at 3 µM (%)

(A) Cc1ncsc1-c1ccc(CNC(=O)[C@@H]2C[C@@H](O)CN2C(=O)[C@@H](NC(=O)CCCCCOCCOCCOCCCCCCOc2cccc([C@H](C)NC(=O)c3cccc(NCc4nnc(-c5ccncn5)n4C)c3)c2)C(C)(C)C)cc1 [Compound D78]
(B) Cc1ncsc1-c1ccc(CNC(=O)[C@@H]2C[C@@H](O)CN2C(=O)[C@@H](NC(=O)CCCOCCOCCOCCCCCCOc2cccc(CNC(=O)c3cccc(NCc4nnc(-c5ccncn5)n4C)c3)c2)C(C)(C)C)cc1 [Compound D77]
### Prompt Lab note: check whether A or B has the lower measured inhibition at 3 µM. Please respond with the label that marks your chosen entry.
### Response A
(A: -18%, B: -7%)

----------
Biological target: GRK2 (Homo sapiens, UniProt P25098)
Test: GRK2 Inhibition Assay (TR-FRET, Example 1)
Format: biochemical
Settings: Table 4; Example 1 assay; read-out: Enzymatic GRK2 IC50: Av IC50 GRK2
pIC50: −log10 of the molar value. Counter-ions that a name gives are not always drawn.
quantity.name: pIC50

{"compound": "Cc1ncsc1-c1ccc(CNC(=O)[C@@H]2C[C@@H](O)CN2C(=O)[C@@H](NC(=O)CCCCCOCCOCCOCCCCCCOc2cccc([C@H](C)NC(=O)c3cccc(NCc4nnc(-c5ccncn5)n4C)c3)c2)C(C)(C)C)cc1", "measured.number": 6.90}
{"compound": "C[C@@H](NC(=O)c1cccc(NCc2nnc(-c3ccncn3)n2C)c1)c1cccc(C(=O)N2CC(CN3CCN(c4ccc5c(c4)CN(C4CCC(=O)NC4=O)C5=O)CC3)C2)c1 (stereo partly shown) [Compound D121, hydrochloride]", "measured.number": 7.35}
{"compound": "C[C@H](NC(=O)c1cccc(NCc2nnc(-c3ccncn3)n2C)c1)c1cccc(OCCCCCOCCCOCC(=O)Nc2cccc3c2CN(C2CCC(=O)NC2=O)C3=O)c1 (stereo partly shown)", "measured.number": 6.68}
{"compound": "C[C@@H](NC(=O)c1cccc(NCc2nnc(-c3ccncn3)n2C)c1)c1ccc(OCCCCCCOCCOCCOCCCC(=O)Nc2cccc3c2CN(C2CCC(=O)NC2=O)C3=O)cc1 (stereo partly shown)", "measured.number": 8.66}
{"compound": "C[C@@H](NC(=O)c1cccc(NCc2nnc(-c3ccncn3)n2C)c1)c1ccc(OCCCCCCOCCOCCOCCCCCC(=O)Nc2cccc3c2CN(C2CCC(=O)NC2=O)C3=O)cc1 (stereo partly shown)", "measured.number": 8.00}
{"compound": "Cc1ncsc1-c1ccc(CNC(=O)[C@@H]2C[C@@H](O)CN2C(=O)[C@@H](NC(=O)CCCOCCOCCOCCCCCCOc2ccc([C@@H](C)NC(=O)c3cccc(NCc4nnc(-c5ccncn5)n4C)c3)cc2)C(C)(C)C)cc1", "measured.number": 8.18}
{"compound": "C[C@@H](NC(=O)c1cccc(NCc2nnc(-c3ccncn3)n2C)c1)c1cccc(C(=O)N2CCC(CCN3CCN(c4ccc5c(c4)CN(C4CCC(=O)NC4=O)C5=O)CC3)CC2)c1 (stereo partly shown)", "measured.number": 8.02}
{"compound": "C[C@@H](NC(=O)c1cccc(NCc2nnc(-c3ccncn3)n2C)c1)c1cccc(OCCCCCCOCCOCCOCCCCCC(=O)Nc2cccc3c2CN(C2CCC(=O)N(C)C2=O)C3=O)c1 (stereo partly shown)", "measured.number": 7.90}

(a) C[C@@H](NC(=O)c1cccc(NCc2nnc(-c3ccncn3)n2C)c1)c1ccc(OCCCCCCOCCOCCOCCCC(=O)N2CCN(c3cc4c(cc3F)C(=O)N(C3CCC(=O)NC3=O)C4=O)CC2)cc1 (stereo partly shown)
(b) C[C@@H](NC(=O)c1cccc(NCc2nnc(-c3ccncn3)n2C)c1)c1cccc(OCCCCCCOCCOCCOCCCC(=O)N2CCN(c3cc4c(cc3F)C(=O)N(C3CCC(=O)NC3=O)C4=O)CC2)c1 (stereo partly shown)
### Prompt Lab note: check whether a or b has the lower measured pIC50. Please respond with the label that marks your chosen entry.
### Response b
